Source of measurements: patent US6723753B2

biological target: CETP (Homo sapiens, UniProt P11597); experiment: Assay of CETP Inhibition using Purified Components (Reconstituted Buffer Assay); type: biochemical; parameters: made in house; host or cells: CHO cells (serum-free conditioned medium); settings: Inhibition of CETP activity in reconstituted buffer assay; transfer of [3H]CE from HDL to LDL; read-out: IC50
Sequence (P11597 18-493): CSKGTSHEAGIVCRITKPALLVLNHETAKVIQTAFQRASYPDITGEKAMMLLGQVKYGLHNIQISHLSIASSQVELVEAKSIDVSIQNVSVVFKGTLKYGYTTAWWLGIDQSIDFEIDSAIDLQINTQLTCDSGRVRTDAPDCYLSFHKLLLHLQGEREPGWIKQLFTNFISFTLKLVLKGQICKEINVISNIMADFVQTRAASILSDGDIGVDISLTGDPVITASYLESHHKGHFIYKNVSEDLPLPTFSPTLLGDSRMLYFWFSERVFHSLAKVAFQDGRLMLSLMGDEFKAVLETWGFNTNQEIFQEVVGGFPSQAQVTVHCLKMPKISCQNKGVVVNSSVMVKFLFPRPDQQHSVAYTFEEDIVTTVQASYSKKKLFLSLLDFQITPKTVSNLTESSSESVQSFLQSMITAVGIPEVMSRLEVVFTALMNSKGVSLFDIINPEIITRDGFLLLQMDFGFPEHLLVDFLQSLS
pIC50: −log10 of the molar value.
A collection of compounds and their measured pIC50

compound | relationQualifier | pIC50
Cc1ccc(CN(CC(O)C(F)(F)F)c2cccc(F)c2F)cc1 (centres unmarked) | < | 4.00
COc1cc(OC)cc(C(=O)N(CC(O)C(F)(F)F)c2cccc(OC(F)(F)F)c2)c1 (centres unmarked) | = | 4.15
CCCCOc1ccc(N(Cc2cccc(OC(F)(F)F)c2)CC(O)C(F)(F)F)cc1 (centres unmarked) | = | 4.70
CSc1ccc(Oc2cccc(N(Cc3cccc(OC(F)(F)C(F)F)c3)CC(O)C(F)(F)F)c2)cc1 (centres unmarked) | = | 6.00
CCOC(=O)c1cccc(Nc2cccc(N(Cc3cccc(OC(F)(F)C(F)F)c3)CC(O)C(F)(F)F)c2)c1 (centres unmarked) | = | 4.48
OC(CN(Cc1cccc(OC(F)(F)C(F)F)c1)c1cccc(Oc2ccc(F)c(F)c2F)c1)C(F)(F)F (centres unmarked) | = | 6.46
O=S(=O)(Nc1cccc(N(Cc2cccc(OC(F)(F)C(F)F)c2)CC(O)C(F)(F)F)c1)c1ccc(F)cc1 (centres unmarked) | = | 4.37
CC(C)(C)c1ccc(Cc2cccc(N(Cc3cccc(OC(F)(F)C(F)F)c3)CC(O)C(F)(F)F)c2)cc1 (centres unmarked) | = | 4.52
OC(CN(Cc1cccc(OC(F)(F)C(F)F)c1)c1cccc(-c2ccccn2)c1)C(F)(F)F (centres unmarked) | = | 4.89
OC(CN(Cc1ccc2c(c1)OCCO2)c1cccc(OC(F)(F)F)c1)C(F)(F)F (centres unmarked) | = | 4.46
OC(CN(Cc1cccc(OC(F)(F)C(F)F)c1)c1cccc(OCc2c(F)c(F)c(C(F)(F)F)c(F)c2F)c1)C(F)(F)F (centres unmarked) | = | 4.96
OC(CN(Cc1ccc(Oc2ccccc2)cc1)c1cccc(OC(F)(F)F)c1)C(F)(F)F (centres unmarked) | = | 5.10
O=C(Nc1ccc(F)cc1)Nc1cccc(N(Cc2cccc(OC(F)(F)C(F)F)c2)CC(O)C(F)(F)F)c1 (centres unmarked) | < | 4.30
Cc1ccc(CN(Cc2ccccc2F)CC(O)C(F)(F)F)cc1 (centres unmarked) | < | 4.00

====

target: CETP (Homo sapiens, UniProt P11597); assay: Assay of CETP Inhibition using Purified Components (Reconstituted Buffer Assay); assay type: biochemical; design: made in house; host or cells: CHO cells (serum-free conditioned medium); settings: Inhibition of CETP activity in reconstituted buffer assay; transfer of [3H]CE from HDL to LDL; read-out: IC50
pIC50: −log10 of the molar value.
Measured pIC50, listed per entry for reference.
quantity: pIC50

compound | quantity | relationQualifier | observedMeasurement
OC(CN(Cc1ccc2c(c1)Cc1ccccc1-2)c1cccc(F)c1)C(F)(F)F (stereo not shown) | pIC50 | = | 5.00
OC(CN(Cc1cccc(OC(F)(F)C(F)F)c1)c1cc(F)ccc1F)C(F)(F)F (stereo not shown) | pIC50 | = | 5.70
OC(CN(Cc1cccc(Oc2ccccc2)c1)c1ccc(Oc2ccccc2)cc1)C(F)(F)F (stereo not shown) | pIC50 | < | 4.00
OC(CN(Cc1cccc(I)c1)c1cccc(OC(F)(F)F)c1)C(F)(F)F (stereo not shown) | pIC50 | = | 5.52
